# target-of-assay: T1, Human Siglec-5 (human, UniProt O15389 17-551)
# T1 construct: Expressed on transfected CHO cells; also called HuSiglec-5
# T1 sequence: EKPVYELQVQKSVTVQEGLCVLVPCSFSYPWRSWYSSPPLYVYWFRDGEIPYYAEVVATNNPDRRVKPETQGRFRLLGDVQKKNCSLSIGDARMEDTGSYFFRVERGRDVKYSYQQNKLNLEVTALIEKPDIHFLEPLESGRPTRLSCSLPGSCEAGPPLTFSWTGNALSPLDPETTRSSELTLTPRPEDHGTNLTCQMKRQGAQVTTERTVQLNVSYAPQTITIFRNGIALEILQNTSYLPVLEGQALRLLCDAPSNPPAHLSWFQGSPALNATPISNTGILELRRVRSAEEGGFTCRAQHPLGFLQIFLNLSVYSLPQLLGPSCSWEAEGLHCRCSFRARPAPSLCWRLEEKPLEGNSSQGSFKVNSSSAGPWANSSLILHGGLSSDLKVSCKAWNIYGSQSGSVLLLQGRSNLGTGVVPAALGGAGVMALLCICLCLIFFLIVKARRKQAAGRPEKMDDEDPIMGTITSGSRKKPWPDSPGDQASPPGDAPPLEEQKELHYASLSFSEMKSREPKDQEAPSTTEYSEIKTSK
# experiment-summary: flow cytometry, CHO transfectants
readout-label: binding result

| binder | readout-label | assay-result |
| --- | --- | --- |
| mAb3 (antibody, human IgG1, V domains shown) VH: EVQLLETGPGLVKPSQSLSLTCTVTGYSITGGFAWNWIRQFPGNTLEWMGYIGYGGSTSYNPSLNSRISITRDTSKNHFFLQFNSVTTEDSATYYCARGDYLFAYWGQGTLVTVSA VL: DILMTQSPASLSASVGETVSITCRASGNIHNYLAWYLQRQGKSPQLLVYNAKTLADGVPSRFSGTGSGTQFSLKINSLQPEDFGSYYCQHFWSTPRTFGGGTKLEIK | binding result | no binding |
| mAb5 (antibody, human IgG1, V domains shown) VH: EIQLQQSGPELEKPGASVKISCKASGYSFSDYNMNWVKQSNGKSLEWIGNIDPYYGATSYNQRFKGKATLTVDKSSSTAYMQLKSLTSEDSAVYYCARGDSLFAYWGHGTLVTVSA VL: DIVMTQSQEFMSTSLGDRVSVTCKASQNVGTNVAWYQQKPGQSPKALLYSASSRYSGVPDRFTGSGSGTDFTLTISNVQSEDLAEYFCQQYITYPYTFGGGTKLEIK | binding result | no binding |
| mAb1 (antibody, human IgG1, V domains shown) VH: DVQLQESGPGLVKPSQSLSLTCTVTGYSITGGFAWNWIRQFPGNTLEWMGYIGYGGSTSYNPSLNSRISITRDTSKNHFFLQFNSVTTDDSATYYCARGDYLFAYWGQGTLVTVSA VL: DIVMTQSHKFMSTSVGDRVSITCKASQDVNTAVAWYQQKPGQSPKLLIYSASYRYTGVPDRFTGSGSGTDFTFTISSVQAEDLAVYYCQQHYSTPRTFGGGTKLEIK | binding result | no binding |
